Biological target: human FXR (Homo sapiens)
Sequence (Q96RI1 262-486 limits assumed): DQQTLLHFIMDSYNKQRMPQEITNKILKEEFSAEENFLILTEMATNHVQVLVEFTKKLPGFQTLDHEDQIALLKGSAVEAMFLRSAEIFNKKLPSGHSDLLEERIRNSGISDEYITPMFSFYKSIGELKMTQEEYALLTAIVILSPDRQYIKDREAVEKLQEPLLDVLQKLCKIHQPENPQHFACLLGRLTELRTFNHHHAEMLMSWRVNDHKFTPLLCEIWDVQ
Assay: transient human FXR/Gal4-luciferase reporter assay (HLE GAL-FXR)
Conditions: FXR EC50 (nM), Gal4-hFXR fusion reporter, HEK293 cells; Table 1
We begin with a simple list: items and their reported log10 of EC50.
Parameter value (number): base-10 log of EC50 in nM.

compound=O=C(O)c1cc(C(F)(F)F)c2cc(N3CC(/C=C/c4c(-c5c(Cl)cncc5Cl)noc4C4CC4)C3)ccc2n1 testreadout="log10 of EC50" measuredresult=2.18
compound=COc1cc(C(=O)O)nc2ccc(N3CC(/C=C/c4c(-c5ccccc5C(F)(F)F)noc4C4CC4)C3)cc12 testreadout="log10 of EC50" measuredresult=1.80
compound=O=C(O)c1ccc2cc(N3CCC(/C=C/c4c(-c5c(Cl)cccc5Cl)noc4C4CC4)CC3)ccc2n1 testreadout="log10 of EC50" measuredresult=0.78
compound=Clc1cccc(Cl)c1-c1noc(C2CC2)c1/C=C/C1CCN(c2cccc(-c3nn[nH]n3)c2)CC1 testreadout="log10 of EC50" measuredresult=2.33

q: Param readout= log10 of EC50; system= human FXR (Homo sapiens); entry= O=C(O)c1cnn2cc(N3CCC(/C=C/c4c(-c5ccccc5OC(F)(F)F)noc4C4CC4)CC3)ccc12 ; returns value.
a: 2.44

q: Quick one: COc1nc(C(=O)O)cc2ccc(N3CC4C(/C=C/c5c(-c6ccccc6C(F)(F)F)noc5C5CC5)C4C3)cc12 (stereo not shown)
a: 2.62

q: Quick one: O=C(O)c1ccc(N2CCC(/C=C/c3c(-c4c(Cl)cccc4Cl)noc3C3CC3)CC2)cc1Cl
a: 1.36

q: Quick one: O=C(O)c1cc(C(F)(F)F)c2cc(N3CC[C@H](/C=C/c4c(-c5ccccc5C(F)(F)F)noc4C4CC4)C3)ccc2n1
a: 1.34

q: Quick one: FC(F)(F)Oc1ccccc1-c1noc(C2CC2)c1/C=C/C1CCN(c2ccc(-c3nn[nH]n3)cc2)CC1
a: 1.30

q: Quick one: Cn1cc(C(=O)O)c2ccc(N3CC4C(/C=C/c5c(-c6c(Cl)cncc6Cl)noc5C5CC5)C4C3)cc21 (stereo not shown)
a: 1.49
